Tested on: OVCAR-8 ovarian
TEST: NCI tumour cell line growth inhibition, 48 h

- COMPOUND: "CCC1C(=O)OCc2c1cc1n(c2=O)CCC12OCCO2 (stereo unspecified)"
  TGI: "> 100 µM"
- COMPOUND: "CCOC(=O)c1csc(NC(=O)CCCC#N)n1"
  TGI: "> 100 µM"
- COMPOUND: "CC1(C)OC(CCO)CN1C(=O)OCc1ccccc1 (stereo unspecified)"
  TGI: "> 100 µM"
- COMPOUND: "COc1cc2c(cc1O)CC[n+]1cc3c(OC)c(OC)ccc3cc1-2"
  TGI: "> 100 µM"
- COMPOUND: "FC(F)(F)c1ccc2c(Nc3cccc(C4CC(c5ccccc5)=NN4c4ccc(Cl)cc4)c3)ccnc2c1 (stereo unspecified)"
  TGI: "19.7 µM"
- COMPOUND: "Cc1ncc(NC(=O)c2ccc(CN3CCN(C)CC3)c(C(F)(F)F)c2)cc1Nc1nccc(-c2cccnc2)n1"
  TGI: "31.6 µM"
- COMPOUND: "Nc1ccc(SC23CC4CC(CC(C4)C2)C3)cc1"
  TGI: "> 100 µM"
- COMPOUND: "C=C(COC(C)=O)CC(/C=C(\\C)CCC=C(C)C)OC(C)=O (stereo unspecified)"
  TGI: "> 100 µM"
- COMPOUND: "Cc1ccc(-n2cc(-c3ccc(Cl)cc3)c3c2N=CN2NC(c4ccco4)=NC32)cc1 (stereo unspecified)"
  TGI: "27.5 µM"
- COMPOUND: "CN(C)c1nc(-c2cccs2)n2nc(-c3ccc(Cl)cc3)cc2n1"
  TGI: "> 100 µM"
- COMPOUND: "CCOC(=O)/C(=C/c1ccco1)P(=O)(OCC)OCC"
  TGI: "> 100 µM"
- COMPOUND: "CC1(C)OC(=O)C=C([O-])O1.CC1(C)OC(=O)C=C([O-])O1.O=c1c(O)c(-c2ccc([O-])cc2[O-])oc2cc(O)cc(O)c12.[Ti+4]"
  TGI: "> 100 µM"
- COMPOUND: "CCCC[C@@H]1CCN2C[C@@H](O)[C@@H](O)[C@H]2[C@@H]1O"
  TGI: "> 100 µM"
- COMPOUND: "FC(F)=C(c1ccc(-c2ccc(Cl)cc2)cc1)C(F)(F)F"
  TGI: "57.9 µM"
- COMPOUND: "Cc1ccc2c(c1)C(=O)/C(=C\\c1ccc(Cl)cc1)CCS2(=O)=O"
  TGI: "5.39 µM"
- COMPOUND: "N#CC(C#N)=Cc1cccc(Oc2ccccc2)c1"
  TGI: "> 31.6 µM"
- COMPOUND: "COc1ccc(NC2=C(Br)C(=O)C(C)=C(C)C2=O)cc1"
  TGI: "5.31 µM"
- COMPOUND: "CCCCCC(C(O)C#N)C(O)(C(F)(F)F)C(F)(F)F (stereo unspecified)"
  TGI: "> 10 µM"
- COMPOUND: "CN1CCN(Cc2ccc(NC(=O)c3ccc(C(C)(C)C)c(C#Cc4cnc5cccnn45)c3)cc2C(F)(F)F)CC1"
  TGI: "5.61 µM"
- COMPOUND: "c1ccc2c(c1)N=C(c1cccc3ccccc13)CC(c1cccc3ccccc13)S2 (stereo unspecified)"
  TGI: "16.6 µM"
- COMPOUND: "O=C(Nc1ccc(S(=O)(=O)N[C@@H](C(=O)O)c2ccccc2)cc1)c1ccc(F)cc1"
  TGI: "> 100 µM"
- COMPOUND: "C[C@@H]1C(=O)CC2(O)[C@@]13C[C@@H](OC(=O)[C@@H]3O)[C@@H](C)[C@@]21COC1=O (stereo partly specified)"
  TGI: "> 100 µM"
- COMPOUND: "CC(C)(C)c1ccc2c(c1)OCc1n[nH]c(n1)COc1cc(C(C)(C)C)ccc1OCCOCCO2"
  TGI: "14.3 µM"
- COMPOUND: "COc1cc(/C=C/C(=O)O)ccc1OS(=O)(=O)O"
  TGI: "> 100 µM"
- COMPOUND: "Cc1ccsc1C(=S)Nc1ccc(Cl)c(C(=O)OC(C(C)C)C(C)C)c1"
  TGI: "> 100 µM"
- COMPOUND: "CCC1(CC)C(=O)NC(=S)N=C1N"
  TGI: "> 100 µM"
- COMPOUND: "CC1=CCC[C@H]2[C@](C)(CC3=CC(=O)C4SCCSC4C3=O)[C@@H](C)CC[C@]12C (stereo partly specified)"
  TGI: "39.6 µM"
- COMPOUND: "C[C@H]1CCC/C=C/[C@@H]2C[C@H](N)C[C@H]2[C@H](O)/C=C/C(=O)O1"
  TGI: "> 100 µM"
- COMPOUND: "CC(=O)[CH-]C(C)=O.CC(=O)[CH-]C(C)=O.N=CC=N.[Sn+2]"
  TGI: "4.74 µM"
- COMPOUND: "CC12CCC(C/C1=N\\NC(N)=O)C2(C)C (stereo unspecified)"
  TGI: "> 100 µM"
- COMPOUND: "COP(=O)(CC(=O)C1OC(OCc2ccccc2)C(OCc2ccccc2)C(OCc2ccccc2)C1OCc1ccccc1)OC (stereo unspecified)"
  TGI: "> 100 µM"
- COMPOUND: "N#Cc1c(N)c(C(=O)O)nn(-c2cccc(C(F)(F)F)c2)c1=O"
  TGI: "> 100 µM"
- COMPOUND: "COc1ccc(C2=NC(C)(C)CO2)cc1"
  TGI: "> 100 µM"
- COMPOUND: "COc1cc(-c2cn(C)c(=O)c(C)c2C)cc(OC)c1CN1CC[C@H](N2CCN(c3ccc(N[C@H]4CCC(=O)NC4=O)cc3F)CC2)C(F)(F)C1"
  TGI: "25.7 µM"
- COMPOUND: "OC(c1ccco1)C(F)(F)c1nc2ccccc2o1 (stereo unspecified)"
  TGI: "> 100 µM"
- COMPOUND: "O=C(CN=C(CN(c1ccccc1)c1ccccc1)Oc1c(Cl)cc(Cl)cc1Cl)n1cnc2ccccc21"
  TGI: "> 100 µM"

----------
Tested on: CAKI-1 renal
TEST: NCI tumour cell line growth inhibition, 48 h
Entries and their TGI values follow.
MEASUREMENT LABEL: TGI

- MOLECULE: "COc1ccc(CCCCl)c(C2=NCCc3ccccc32)c1"
  ASSAYED TARGET: "CAKI-1 renal"
  READING: "> 100 µM"
- MOLECULE: "CC(C)Cc1c(C#N)c(C#N)c(N)n1Cc1ccccc1"
  ASSAYED TARGET: "CAKI-1 renal"
  READING: "> 100 µM"
- MOLECULE: "NS(=O)(=O)c1nnc(NSc2ccc([N+](=O)[O-])cc2)s1"
  ASSAYED TARGET: "CAKI-1 renal"
  READING: "> 100 µM"
- MOLECULE: "COc1cc(/C=C\\c2ccc(O)cc2)cc(OC)c1OC"
  ASSAYED TARGET: "CAKI-1 renal"
  READING: "> 100 µM"
- MOLECULE: "Cc1ccc(C(=O)c2[nH]c(Nc3cc(C)ccn3)c(C(=S)Nc3ccccc3)c2N)cc1"
  ASSAYED TARGET: "CAKI-1 renal"
  READING: "> 100 µM"
- MOLECULE: "CCOC(=O)c1c(NC(=S)Nc2ccc(C)cc2)sc2c1CCN(C)C2"
  ASSAYED TARGET: "CAKI-1 renal"
  READING: "> 100 µM"
- MOLECULE: "CCCC[C@@H]1CCN2C[C@@H](O)[C@@H](O)[C@H]2[C@@H]1O"
  ASSAYED TARGET: "CAKI-1 renal"
  READING: "> 100 µM"
- MOLECULE: "O=S1(=O)c2ccccc2NC(=S)N1c1ccccc1"
  ASSAYED TARGET: "CAKI-1 renal"
  READING: "> 100 µM"
- MOLECULE: "O=c1c(Cc2ccccc2)c(-c2ccccc2)[nH]n1C1=NCCN1"
  ASSAYED TARGET: "CAKI-1 renal"
  READING: "> 100 µM"
- MOLECULE: "COC(=O)/C=C\\S/C(=C(/c1ccccc1)n1ccc(C(=O)OC)n1)c1ccccc1"
  ASSAYED TARGET: "CAKI-1 renal"
  READING: "> 100 µM"
- MOLECULE: "Cc1cccc(NC(Nc2cccc(C)c2)=C(C(Cl)=C(Cl)Cl)[N+](=O)[O-])c1"
  ASSAYED TARGET: "CAKI-1 renal"
  READING: "35.6 µM"
- MOLECULE: "COc1ccc2c(c1)[C@@]13CCN4CC5=CCO[C@H]6CC(=O)N2[C@H]1[C@H]6[C@H]5C[C@H]43"
  ASSAYED TARGET: "CAKI-1 renal"
  READING: "> 100 µM"
- MOLECULE: "COc1cc2c3c(n(C)c(=O)c2cc1OC)-c1cc2c(cc1/C3=C/CCCCBr)OCO2"
  ASSAYED TARGET: "CAKI-1 renal"
  READING: "> 100 µM"
- MOLECULE: "COn1cc(CO)c2ccccc21"
  ASSAYED TARGET: "CAKI-1 renal"
  READING: "> 54.8 µM"
- MOLECULE: "CCCCCCNc1nc(NCCCCCC)c2[nH]c(NCCCCCC)nc2n1"
  ASSAYED TARGET: "CAKI-1 renal"
  READING: "50.9 µM"
- MOLECULE: "COc1ccc(C2C(C#N)=C(N)OC3=C2CCCc2ccc(F)cc23)cc1OC (configuration not stated)"
  ASSAYED TARGET: "CAKI-1 renal"
  READING: "65.3 µM"
- MOLECULE: "COc1ccc(NC2=C(Br)C(=O)C(C)=C(C)C2=O)cc1"
  ASSAYED TARGET: "CAKI-1 renal"
  READING: "3.11 µM"
